tested on: K562 CRISPRi cells; assay: Constant region variant library pooled growth screen, K562; type: cell-based, human; conditions: sgRNA constant region variants; activity relative to the original, un-modified constant region cr995
observed.property: Mean relative activity
Could you keep your reply to the number by itself?

[in] Which Mean relative activity is listed for cr099 (nucleic acid, listed as DNA, chemistry not fully specified) guide: GTTTAAGAGCTAAGCTGGAAACAGCATAGCAATTTTAAATAAGGCTAGGCCGTTATCAACTTGAAAAAGTGGCACCGAGTCGGTGCT ?
[out] 0.0005052

[in] Which Mean relative activity is listed for cr536 (nucleic acid, listed as DNA, chemistry not fully specified) guide: GTTTAAGAGCTAAGCTGGAAACAGCATAGCAACTTTAAATAAGGATATTCCGTTATCAACTTGAAAAAGTGGCACCGAGTCGGTGCT ?
[out] 0.003951

[in] Which Mean relative activity is listed for cr882 (nucleic acid, listed as DNA, chemistry not fully specified) guide: GTTTAAGAGCTAAGCTGGAAACAGCATAGCAAGTTTAAATAAGGCTAGTCCGTTATCAACTTCAAAAAGTGGCACCGAGTCGGTGCT ?
[out] 1.027

[in] Which Mean relative activity is listed for cr534 (nucleic acid, listed as DNA, chemistry not fully specified) guide: GTTTAAGAGCTAAGCTGGAAACAGCATAGCAAGTTTAAATAAGGTTAATCCGTTATCAACTTGAAAAAGTGACACCGAGTCGGTGTT ?
[out] 1.069

[in] Which Mean relative activity is listed for cr961 (nucleic acid, listed as DNA, chemistry not fully specified) guide: GTTTAAGAGCTAAGCTGGAAACAGCATAGCAAGTTTAAATAAGGCTAGTCCGTTATCAACTCGAAAGAGTGCAACCGAGTCGGTTGT ?
[out] 1.088

[in] Which Mean relative activity is listed for cr517 (nucleic acid, listed as DNA, chemistry not fully specified) guide: GTTTAAGAGCTAAGCTGGAAACAGCATAGCAAGTTTAAATAAGGCTAGTCCGTTATCAACTTGAAAAAGTGGCACCGAGTCTGTGCT ?
[out] 0.8173

[in] Which Mean relative activity is listed for cr263 (nucleic acid, listed as DNA, chemistry not fully specified) guide: GTTTAAGAGCTAAGCTGGAAACAGCATAGCAAGTTTAAATAAGGCTAGTCCGTTATCAACTTGAACAAGTGGCACCGAGTCGGTGCT ?
[out] 1.033

[in] Which Mean relative activity is listed for cr275 (nucleic acid, listed as DNA, chemistry not fully specified) guide: GTTTAAGAGCTAAGCTGGAAACAGCATAGCAAGTTTAAATAAGGCTAGTCCGTTATCAACCTGAAAAGGTGGGACAGAGTCTGTCCT ?
[out] 1.06

[in] Which Mean relative activity is listed for cr526 (nucleic acid, listed as DNA, chemistry not fully specified) guide: GTTTAAGAGCTAAGCTGGAAACAGCATAGCAAGTTTAAATAATGCTAGTCAGTTATCAACTTGAAAAAGTGGCGCCGAGTCGGCGCT ?
[out] 0.03359

[in] Which Mean relative activity is listed for cr940 (nucleic acid, listed as DNA, chemistry not fully specified) guide: GTTTAAGAGCTAAGCTGGAAACAGCATAGCAAGCTTAAATAAGGCTAGTCCGTTATCAACGTGAAAACGTGGCACCGAGTCGGTGCT ?
[out] 0.5399

[in] Which Mean relative activity is listed for cr876 (nucleic acid, listed as DNA, chemistry not fully specified) guide: GTTTAAGAGCTAAGCTGGAAACAGCATAGCAAGTTTAAATAAGGCTAGTCCGTTATCAACTTGAAAAAGTGGCACCGAGTCAGTGCT ?
[out] 0.8037

[in] Which Mean relative activity is listed for cr420 (nucleic acid, listed as DNA, chemistry not fully specified) guide: GTTTAAGAGCTAAGCTGGAAACAGCATAGCAAGTTTAAATAAGGCTAGTCCGTTATCAACTTGAAAAAGTGTGACCTAGTAGGTCAT ?
[out] 0.8229

[in] Which Mean relative activity is listed for cr913 (nucleic acid, listed as DNA, chemistry not fully specified) guide: GTTTAAGAGCTAAGCTGGAAACAGCATAGCAAGTTTAAACAAGGCTAGTCCGTTATCAACTTGAAAAAGTGGCACCGAGTCGGTGCT ?
[out] 0.633

[in] Which Mean relative activity is listed for cr554 (nucleic acid, listed as DNA, chemistry not fully specified) guide: GTTTAAGAGCTAAGCTGGAAACAGCATAGCAGGTTTAAATAAGGCTAGTCCGTTACCAACTTGAAAAAGTAGCACCGAGTCGGTGCT ?
[out] 0.8332
